ASSAY_SUMMARY: Half life in Sprague-Dawley rat at 100 mg/kg,po
Format: ADME, organism-based
CONDITION_PARAMETERS: in vivo
Documented half-life across a set of compounds

- CHEM_SMILES: "OB1OCc2ccc(OCc3nnn[nH]3)cc21"
  half-life, h: 3.54
- CHEM_SMILES: "C[C@H](C(=O)O)c1ccc2c(c1)B(O)OC2"
  half-life, h: 4.53

====

ASSAY_SUMMARY: Oral bioavailability in Sprague-Dawley rat at 5 mg/kg
Assay type: ADME, organism-based
CONDITION_PARAMETERS: in vivo
Tick yes if bioavailability is 70% or greater. Tick no if bioavailability is less than 70%.

- CHEM_SMILES: "C[C@@H](C(=O)O)c1ccc2c(c1)B(O)OC2"
  ASSIGNED_CLASS: "yes"
- CHEM_SMILES: "O=C(Cc1ccc2c(c1)B(O)OC2)NS(=O)(=O)c1ccccc1"
  ASSIGNED_CLASS: "no"
- CHEM_SMILES: "C[C@H](C(=O)O)c1ccc2c(c1)B(O)OC2"
  ASSIGNED_CLASS: "yes"
- CHEM_SMILES: "OB1OCc2ccc(Cc3nnn[nH]3)cc21"
  ASSIGNED_CLASS: "no"
- CHEM_SMILES: "OB1OCc2ccc(OCc3nnn[nH]3)cc21"
  ASSIGNED_CLASS: "no"
- CHEM_SMILES: "O=C(Nc1ccc2c(c1)B(O)OC2)c1cccn(Cc2ccccc2)c1=O"
  ASSIGNED_CLASS: "no"

====

ASSAY_SUMMARY: Oral bioavailability in Sprague-Dawley rat at 28 mg/kg
Type: ADME, organism-based
CONDITION_PARAMETERS: in vivo

- CHEM_SMILES: "O=C(Cc1ccc2c(c1)B(O)OC2)NS(=O)(=O)c1ccccc1"
  bioavailability: "> 100%"

====

ASSAY_SUMMARY: Oral bioavailability in Sprague-Dawley rat at 100 mg/kg
Type: ADME, organism-based
CONDITION_PARAMETERS: in vivo
MEASURED_PARAMETER: bioavailability (%)

- CHEM_SMILES: "OB1OCc2ccc(OCc3nnn[nH]3)cc21"
  MEASURED_PARAMETER: "bioavailability"
  UNITS_SYMBOL: "%"
  BOUND_TYPE: "="
  QUANTITATIVE_RESULT: 62
- CHEM_SMILES: "C[C@H](C(=O)O)c1ccc2c(c1)B(O)OC2"
  MEASURED_PARAMETER: "bioavailability"
  UNITS_SYMBOL: "%"
  BOUND_TYPE: ">"
  QUANTITATIVE_RESULT: 100

====

Parameter: AUC/dose. Scope: all listed entries.
ASSAY_SUMMARY: Dose normalized AUC in Sprague-Dawley rat at 5 mg/kg,po
Format: ADME, organism-based
CONDITION_PARAMETERS: in vivo
MEASURED_PARAMETER: AUC/dose (kg·ng·h/mL/mg)

- CHEM_SMILES: "O=C(Cc1ccc2c(c1)B(O)OC2)NS(=O)(=O)c1ccccc1"
  MEASURED_PARAMETER: "AUC/dose"
  QUANTITATIVE_RESULT: 560
- CHEM_SMILES: "C[C@@H](C(=O)O)c1ccc2c(c1)B(O)OC2"
  MEASURED_PARAMETER: "AUC/dose"
  QUANTITATIVE_RESULT: 429
- CHEM_SMILES: "CC(C)(c1ccc2c(c1)B(O)OC2)c1nnn[nH]1"
  MEASURED_PARAMETER: "AUC/dose"
  QUANTITATIVE_RESULT: 612
- CHEM_SMILES: "O=C(Nc1ccc2c(c1)B(O)OC2)c1cccn(Cc2ccccc2)c1=O"
  MEASURED_PARAMETER: "AUC/dose"
  QUANTITATIVE_RESULT: 1120
- CHEM_SMILES: "OB1OCc2ccc(Cc3nnn[nH]3)cc21"
  MEASURED_PARAMETER: "AUC/dose"
  QUANTITATIVE_RESULT: 103
- CHEM_SMILES: "C[C@H](C(=O)O)c1ccc2c(c1)B(O)OC2"
  MEASURED_PARAMETER: "AUC/dose"
  QUANTITATIVE_RESULT: 451
- CHEM_SMILES: "OB1OCc2ccc(OCc3nnn[nH]3)cc21"
  MEASURED_PARAMETER: "AUC/dose"
  QUANTITATIVE_RESULT: 38
